These measurements were taken from patent US4214095A.

Overview of reported LD50 at 168 h across a group of compounds:
assay: Acute oral toxicity (LD50) in mice; format: in vivo; conditions: mouse, in vivo; mice, single oral dose, 7 days observation or longer; read-out: LD50
Structures can show the parent of a compound that is named as a salt.

{"columns": ["compound", "result_modifier", "LD50 at 168 h (mg/kg)"],
 "data": [
  ["CC(C)(Oc1ccccc1Cc1ccc(Cl)cc1)C(=O)OCc1cccnc1 [Example V, hydrochloride]", ">", 3000],
  ["CCOC(=O)C(C)(C)Oc1ccc(Cl)cc1 [Substance B, Ethyl p-chlorophenoxyisobutyrate, reference compound]", "=", 2350]
]}
